System name: Aspartyl aminopeptidase (Plasmodium falciparum (isolate 3D7)) (UniProt Q8I2J3)
Sequence (Q8I2J3 whole entry, looked up): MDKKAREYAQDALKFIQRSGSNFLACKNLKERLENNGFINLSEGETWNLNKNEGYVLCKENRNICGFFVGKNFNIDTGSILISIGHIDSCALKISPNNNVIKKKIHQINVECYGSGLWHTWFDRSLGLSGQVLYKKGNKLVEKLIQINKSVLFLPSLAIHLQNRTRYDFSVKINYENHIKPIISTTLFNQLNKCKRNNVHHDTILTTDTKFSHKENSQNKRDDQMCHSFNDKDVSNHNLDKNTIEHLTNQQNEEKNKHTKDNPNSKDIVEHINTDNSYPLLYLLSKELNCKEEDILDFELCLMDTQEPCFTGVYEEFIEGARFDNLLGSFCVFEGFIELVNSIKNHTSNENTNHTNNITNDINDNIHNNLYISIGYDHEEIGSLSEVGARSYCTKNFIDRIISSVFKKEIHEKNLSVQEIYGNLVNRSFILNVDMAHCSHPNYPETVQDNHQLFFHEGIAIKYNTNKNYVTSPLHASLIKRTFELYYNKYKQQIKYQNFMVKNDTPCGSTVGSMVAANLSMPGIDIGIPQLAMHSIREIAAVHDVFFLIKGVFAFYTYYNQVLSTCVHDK
Assay procedure: PfM18AAP inhibition in parasite lysate, late-stage follow-up, cell lysate, fluorescence, malaria cell lysate, powder samples (AID 492975)
Condition parameters: P. falciparum lysate, H-Glu-NHMec fluorogenic substrate; at 5 µM; hits give high values
Readout label: inhibition (%)
Respond with the bare value in %.

Use these answered entries as a reference point.
O=C(CSc1nc2ccccc2c(=O)[nH]1)c1ccc(O)c(O)c1	79
O=C(Nc1cccc(Cl)c1Cl)Nn1cnnc1	26

Using known records, supply inhibition for `COc1cccc2c(SCC(=O)N/N=C/c3ccc(O)c(O)c3)cc(C)nc12`
80

Using known records, supply inhibition for `O=c1c(O)c(-c2ccc(O)c(O)c2)oc2cc(O)cc(O)c12`
80

Using known records, supply inhibition for `Cc1ccc(-n2c(O)c(/C=N/n3cnnc3)c3ccccc3c2=O)cc1`
12

Using known records, supply inhibition for `O=c1c2c([N+](=O)[O-])cc([N+](=O)[O-])cc2sn1Cc1ccccc1`
94

Using known records, supply inhibition for `NCCc1ccc(O)c(O)c1`
70

Using known records, supply inhibition for `O=C(Nc1ccc(Cl)c(Cl)c1)Nn1cnnc1`
84

Using known records, supply inhibition for `CC1(C)CC(=O)c2c(oc3cc(O)c(O)cc23)C1`
85

Using known records, supply inhibition for `Cc1ccc(NC(=S)Nn2cnnc2)c(C)c1`
7

Using known records, supply inhibition for `Cc1nc(-c2ccc(O)c(O)c2)cs1`
95

Using known records, supply inhibition for `O=C(Nn1cnnc1)c1ccccc1-c1ccccc1`
10

* * *

System name: Aspartyl aminopeptidase (Plasmodium falciparum (isolate 3D7))
Assay procedure: PfM18AAP inhibition in parasite lysate, late-stage follow-up, cell lysate, fluorescence, malaria cell lysate, powder samples (AID 492975)
Condition parameters: P. falciparum lysate, H-Glu-NHMec fluorogenic substrate; at 5 µM
Activity calls are given as the source filed them.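 The calls were made as follows: active = inhibition above 50% of the malaria lysate aminopeptidase activity; inactive = inhibition of 50% or less.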
Answer with one of the outcomes given here: True (active), False (inactive)

Br/C(C=Nn1cnnc1)=C\c1ccccc1	False

Status in this test for `COc1cc([N+](=O)[O-])ccc1NC(=O)Nn1cnnc1` ?
False

Status in this test for `Oc1ccc(-c2csc(-c3ccccc3)n2)cc1O` ?
True

Status in this test for `O=S(=O)(Nn1cnnc1)c1ccccc1` ?
False

Status in this test for `O=C(CNC(=O)c1ccccc1)NCCc1ccc(O)c(O)c1` ?
True

Status in this test for `Cc1cc(C)cc(C(=O)n2cnnc2N)c1` ?
False

Status in this test for `O=C(NC(=S)Nn1cnnc1)c1ccccc1Br` ?
False

Status in this test for `COc1ccc(Cl)cc1NC(=O)Nn1cnnc1` ?
False

* * *

System name: Aspartyl aminopeptidase (Plasmodium falciparum (isolate 3D7)) (UniProt Q8I2J3)
Assay procedure: PfM18AAP inhibition in parasite lysate, late-stage follow-up, cell lysate, fluorescence, malaria cell lysate, powder samples (AID 492975)
Condition parameters: P. falciparum lysate, H-Glu-NHMec fluorogenic substrate; at 5 µM; hits give high values
Calls of active or inactive are those of the source.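 How the source made its calls: active means inhibition above 50% of the malaria lysate aminopeptidase activity; inactive means inhibition of 50% or less.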
Listed below: inhibition values for each entry.

Use these answered entries as a reference point.
O=C(CSc1ncn[nH]1)OCN1C(=O)c2ccccc2C1=O	49% (inactive)
CCOC(=O)C1=C(CS(=O)(=O)c2ccc(F)cc2)NC(=O)NC1c1ccc(O)c(O)c1 (stereo unspecified)	90%
CC1(C)CC2(CC(c3ccccc3F)c3ccc(O)c(O)c3O2)NC(=S)N1 (stereo unspecified)	89%
S=C(Nc1cc(Cl)ccc1Cl)Nn1cnnc1	20% (inactive)
O=c1[nH]c(CSc2ncn[nH]2)nc2ccccc12	15% (inactive)

Using known records, supply inhibition for `Oc1ccc(/C=C/c2cc(O)cc(O)c2)cc1`
66%

Using known records, supply inhibition for `Oc1ccc(-c2csc(-c3cccnc3)n2)cc1O`
99%

Using known records, supply inhibition for `O=C(O)c1cn[nH]c1-n1cnnn1`
7% (inactive)

Using known records, supply inhibition for `Cc1cc(C)n2c(=S)[nH]nc2n1`
74%

Using known records, supply inhibition for `COc1ccc2nc(C)cc(SCC(=O)N/N=C/c3ccc(O)c(O)c3)c2c1`
83%

Using known records, supply inhibition for `COc1ccc(C(=O)n2cnnc2N)cc1`
12% (inactive)
